# target: Albumin (Bos taurus)
# experiment: bovine serum albumin binders on microarray, profiling panel, artefact control for SMM control protein annotation, biochemical, small-molecule microarray, Alexa647 label, 635/667 nm fluorescence (AID 1118);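 further: score merges 667 nm emission intensity and signal-to-noise per printed compound spot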
# testSettings: BSA-A647 binding, fluorescence 635 nm, higher = more signal
Response key: met means composite z-score >= 0.4; not met means composite z-score < 0.4.

These solved cases illustrate the format of a correct answer.
molecule: C=CCOC(=O)[C@H]1[C@@H]2C(=O)O[C@@H](c3ccccc3)[C@@H](c3ccccc3)N2[C@@H](c2ccc(OCCOC(=O)[C@H]3C[C@H]4C(=O)N[C@@H](CCCCNC(C)=O)C(=O)N4[C@H]3c3ccc(O)cc3)cc2)[C@]12C(=O)Nc1ccc(I)cc12
groupLabel: not met
//
molecule: Cc1ccc(S[C@]2(C(=O)O)CC(=O)N(C(C)C)[C@@H]2c2ccc(CO)cc2I)cc1
groupLabel: not met
//
molecule: CCCCCCc1nc(-c2cc(C)c(OC)c(C)c2)cc2c1[Si](C(C)C)(C(C)C)OC2
groupLabel: not met
//
molecule: O[C@@H](Cc1ccccc1)[C@H]1C2C=CCCC=C2CN1Cc1cccc(Cl)c1 (stereo partly specified)
groupLabel: met
//
molecule: COc1ccccc1CN1C(=O)c2ccccc2[C@@H](C(=O)NC2CC2)[C@@H]1c1ccc(CO)cc1
groupLabel: not met
//
molecule: CC(C)C[C@@H]1NC(=O)[C@@H]2C[C@H](C(=O)O)[C@H](c3cccc(OCCO)c3)N2C1=O
groupLabel: not met

### Prompt // inclusive: composite z-score at least 0.4? input: O=C(CS)NCCCCCCNC(=O)[C@@H]1C[C@@H]2C(=O)N[C@@H](Cc3ccccc3)C(=O)N2[C@@H]1c1cccc(OCCO)c1
### Response not met
